Data origin: paper PMC12751014

Biological target: p38/MK2 protein–protein interaction (VF-p38α / GST-MK2) (Homo sapiens, UniProt Q16539)
Sequence (Q16539 2-360 limits assumed): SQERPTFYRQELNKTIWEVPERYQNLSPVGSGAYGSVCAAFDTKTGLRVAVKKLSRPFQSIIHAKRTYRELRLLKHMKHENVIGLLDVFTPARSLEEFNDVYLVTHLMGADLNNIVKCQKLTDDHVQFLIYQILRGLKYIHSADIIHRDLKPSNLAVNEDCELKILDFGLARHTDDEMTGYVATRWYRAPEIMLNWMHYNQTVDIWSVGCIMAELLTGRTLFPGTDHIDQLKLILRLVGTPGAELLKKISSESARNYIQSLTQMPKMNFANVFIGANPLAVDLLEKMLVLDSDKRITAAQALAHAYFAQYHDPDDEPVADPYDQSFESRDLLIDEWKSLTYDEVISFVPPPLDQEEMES
Assay: primary screen, percent of control activity; higher = less effect of the substance
Set-up: species or system HEK293T cell lysate transfected with VF-p38α and GST-MK2; unclear (methods say 'quintuplet replicates')
In all, about 1,900 compounds went through this assay and about 50 (3%) showed an effect of 50% or more. The list comes from a sample in which strong results are over-represented; it also holds close analogues and randomly drawn compounds.
Below, each entry is listed alongside its reported Pct of control.

- COMPOUND: "CNCc1ccc(C)c(NC(=O)c2ccc(Nc3nc(-c4ccccc4)c4ccccc4n3)cc2)c1"
  Pct of control, %: 120
- COMPOUND: "Cc1cc(Nc2ccc(NC(=O)c3ccc(Nc4ccnc5ccccc45)cc3)cc2)nc(N)n1"
  Pct of control, %: 17.7
- COMPOUND: "C=CC(=O)Nc1cccc(Sc2nc(Nc3ccc(N4CCN(C)CC4)cc3)ncc2Cl)c1"
  Pct of control, %: 91.7
- COMPOUND: "CC(C)(C)CC(C)(C)c1ccc(O)c(Cc2ccc(Cl)cc2Cl)c1"
  Pct of control, %: 88.3
- COMPOUND: "CO/N=C(\\C(=O)N[C@@H]1C(=O)N2C(C(=O)O)=C(CSC(=O)c3ccco3)CS[C@H]12)c1csc(N)n1.Cl"
  Pct of control, %: 115
- COMPOUND: "Cc1cc(=O)[nH]c(=S)[nH]1"
  Pct of control, %: 101
- COMPOUND: "COc1ccc2cccc(CCNC(C)=O)c2c1"
  Pct of control, %: 90.6
- COMPOUND: "CS(=O)(=O)c1ccc(-c2cnc(N)c(C(=O)Nc3ccccc3)n2)cc1"
  Pct of control, %: 101
- COMPOUND: "CC(=O)Nc1ccc(C(=O)Nc2ccccc2N)cc1"
  Pct of control, %: 96.8
- COMPOUND: "Cc1coc2c1C(=O)C(=O)c1c-2ccc2c1CCCC2(C)C"
  Pct of control, %: 79.4
- COMPOUND: "O=C(O)c1ccc(N2C(=O)C(=Cc3ccc(-c4ccc([N+](=O)[O-])cc4)o3)C=C2c2ccccc2)cc1"
  Pct of control, %: 24.8
- COMPOUND: "CCNCC.O=C(O)Cc1ccccc1Nc1c(Cl)cccc1Cl"
  Pct of control, %: 95.1
- COMPOUND: "Cc1onc(-c2ccccc2)c1-c1ccc(S(N)(=O)=O)cc1"
  Pct of control, %: 91.8
- COMPOUND: "Nc1ncnc2c1ncn2[C@@H]1O[C@H](CO)[C@@H](O)[C@@H]1O [S1784]"
  Pct of control, %: 91.5
- COMPOUND: "O=C1Nc2ccc(I)cc2C1=Cc1cc(Br)c(O)c(Br)c1"
  Pct of control, %: 43.6
- COMPOUND: "CCC(C)n1ncn(-c2ccc(N3CCN(c4ccc(OCC5COC(Cn6cncn6)(c6ccc(Cl)cc6Cl)O5)cc4)CC3)cc2)c1=O (stereo not shown)"
  Pct of control, %: 88.6

----------
# Lookup of reported Pct of control keyed by entry
Molecular target: p38/MK2 protein–protein interaction (VF-p38α / GST-MK2) (Homo sapiens, UniProt Q16539)
Assay: primary screen, percent of control activity; higher = less effect of the substance
Parameters: species or system HEK293T cell lysate transfected with VF-p38α and GST-MK2; unclear (methods say 'quintuplet replicates')
About 50 (3%) of roughly 1,900 compounds showed an effect of 50% or more. The sample holds strong results, similar compounds and a random draw of the others, so the mix is not that of the screen.

- COMPOUND: "O=C(c1cncc(Br)c1)N1CCC(N2CCCC2)CC1"
  Pct of control (%): 85.2
- COMPOUND: "CCC1OC(=O)C(C)C(OC2CC(C)(OC)C(O)C(C)O2)C(C)C(OC2OC(C)CC(N(C)C)C2O)C(C)(O)CC(C)C(=NOCOCCOC)C(C)C(O)C1(C)O (stereo not drawn)"
  Pct of control (%): 103
- COMPOUND: "CC(=O)NS(=O)(=O)c1ccc(NC(=O)c2ccccc2C(=O)O)cc1"
  Pct of control (%): 96.2
- COMPOUND: "S=c1nc[nH]c2nc[nH]c12"
  Pct of control (%): 126
- COMPOUND: "O=NN(CCCl)C(=O)NC1CCCCC1"
  Pct of control (%): 82.9
- COMPOUND: "CN(C)c1ccc(-c2nc3ncc(Cl)c(N4CCN(CC(=O)Nc5nccs5)CC4)c3[nH]2)cc1"
  Pct of control (%): 97.9
- COMPOUND: "CC(C)(C)c1cc(C(C)(C)C)c(NC(=O)c2c[nH]c3ccccc3c2=O)cc1O"
  Pct of control (%): 111
- COMPOUND: "COc1c(C)c(C(=O)c2ccc(N)c(C(=O)[O-])c2)n2ccccc12.[Na+]"
  Pct of control (%): 94
- COMPOUND: "Cl.O=C(O)Cc1cccc(OCCCN(Cc2cccc(C(F)(F)F)c2Cl)CC(c2ccccc2)c2ccccc2)c1"
  Pct of control (%): 39.4
- COMPOUND: "O=c1c2ccccc2nc2n1CCc1c-2[nH]c2ccccc12"
  Pct of control (%): 100
- COMPOUND: "CC(=O)OC1(C(C)=O)CCC2C3C=C(C)C4=CC(=O)CCC4(C)C3CCC21C (stereo not drawn)"
  Pct of control (%): 106
- COMPOUND: "Nc1ccccc1NC(=O)c1ccc(CNC(=O)OCc2cccnc2)cc1"
  Pct of control (%): 96.2
- COMPOUND: "N#CC(c1ccc(Cl)cc1)c1c(Cl)cc(-n2ncc(=O)[nH]c2=O)cc1Cl (stereo not drawn)"
  Pct of control (%): 72
- COMPOUND: "O=C(NNc1ccccc1)c1ccncc1"
  Pct of control (%): 97.3
- COMPOUND: "Cc1cc(NC(=O)Nc2ccc(N(C)C)cc2)c2cc(F)cc(F)c2n1"
  Pct of control (%): 89.3
- COMPOUND: "CC(C)(C)NC[C@H](O)COc1nsnc1N1CCOCC1.O=C(O)C=CC(=O)O"
  Pct of control (%): 94.2
- COMPOUND: "CC1=CC(=O)NS(=O)(=O)O1.[K]"
  Pct of control (%): 95.6
- COMPOUND: "Cl.NC1CC1c1ccccc1 (stereo not drawn)"
  Pct of control (%): 91.7
- COMPOUND: "Cc1cccc(C#Cc2ccccc2)n1"
  Pct of control (%): 29.7
- COMPOUND: "COc1ccccc1S(=O)(=O)Nc1ccc2c(c1)CN(C)C(=O)N2"
  Pct of control (%): 117
- COMPOUND: "Cc1cc([N+](=O)[O-])ccc1NS(=O)(=O)c1cc(Cl)ccc1Cl"
  Pct of control (%): 87.8

----------
Target: p38/MK2 protein–protein interaction (VF-p38α / GST-MK2) (Homo sapiens)
Assay: primary screen, percent of control activity; higher = less effect of the substance
Parameters: species or system HEK293T cell lysate transfected with VF-p38α and GST-MK2; unclear (methods say 'quintuplet replicates')
The campaign covered roughly 1,900 compounds. About 50 (3%) showed an effect of 50% or more. Many of the other results were omitted from the sample, so strong results are more common in it than they were.

- MOLECULE: "CC(C)c1onc(-c2c(Cl)cccc2Cl)c1COc1ccc(C=Cc2cccc(C(=O)O)c2)c(Cl)c1"
  Pct of control (%): 16.5
- MOLECULE: "C=C1c2cccc(O)c2C(O)=C2C(=O)C3(O)C(O)=C(C(N)=O)C(=O)C(N(C)C)C3C(O)C12.Cl (stereo not shown)"
  Pct of control (%): 52.5
- MOLECULE: "c1cc(-c2cnn3cc(-c4ccc(N5CCNCC5)cc4)cnc23)c2cccnc2c1"
  Pct of control (%): 10.1
- MOLECULE: "CCCNC(C)C(=O)Nc1ccccc1C (stereo not shown)"
  Pct of control (%): 96.3
- MOLECULE: "NC(=O)N1c2ccccc2C=Cc2ccccc21"
  Pct of control (%): 93.5
- MOLECULE: "O=C1c2c(O)ccc(O)c2C(=O)c2c(NCCNCCO)ccc(NCCNCCO)c21"
  Pct of control (%): 45.7
- MOLECULE: "Cl.Cl.O=C1c2c(O)ccc(O)c2C(=O)c2c(NCCNCCO)ccc(NCCNCCO)c21"
  Pct of control (%): 92
- MOLECULE: "CN1C(=O)CCS(=O)(=O)C1c1ccc(Cl)cc1 (stereo not shown)"
  Pct of control (%): 95.4
- MOLECULE: "COc1cc(OC)c(OC)cc1C=O"
  Pct of control (%): 91.5
- MOLECULE: "CN1C(C(=O)Nc2ccccn2)=C(O)c2sc(Cl)cc2S1(=O)=O"
  Pct of control (%): 94.2
- MOLECULE: "Clc1ccc(CCC(Cn2ccnc2)Sc2c(Cl)cccc2Cl)cc1.O=[N+]([O-])O (stereo not shown)"
  Pct of control (%): 90.3
- MOLECULE: "Cc1nn(-c2ccccc2)c(C)c1C=NN1CCN(Cc2ccccc2)CC1"
  Pct of control (%): 85.5
- MOLECULE: "N#CC(=Cc1ccc(O)c(O)c1)C(=O)NCc1ccccc1"
  Pct of control (%): 95.3
- MOLECULE: "O=C(Nc1ccncc1)c1cc([N+](=O)[O-])ccc1Cl"
  Pct of control (%): 103
- MOLECULE: "NC(N)=NS(=O)(=O)c1ccc(N)cc1"
  Pct of control (%): 105
- MOLECULE: "O=C(c1ccccc1)c1ccc2n1CCC2C(=O)O (stereo not shown)"
  Pct of control (%): 97.5
- MOLECULE: "CN(C)C1C(=O)C(C(N)=O)=C(O)C2(O)C(=O)C3=C(O)c4c(O)cccc4C(C)(O)C3C(O)C12.O.O (stereo not shown)"
  Pct of control (%): 48.8
- MOLECULE: "COc1ccc(-c2cnc3c(-c4cccc5ncccc45)cnn3c2)cc1"
  Pct of control (%): 23.2
- MOLECULE: "Cc1cccc(C(C)c2cnc[nH]2)c1C.Cl (stereo not shown)"
  Pct of control (%): 91.6
- MOLECULE: "COc1ccc(-c2nc3ccc(C4=NNC(=O)CC4C)cc3[nH]2)cc1 (stereo not shown)"
  Pct of control (%): 74.1
- MOLECULE: "Oc1c(Br)cc(Br)c2cccnc12"
  Pct of control (%): 104
- MOLECULE: "COc1ccc2nc([S@@+]([O-])Cc3ncc(C)c(OC)c3C)[nH]c2c1"
  Pct of control (%): 89.4
- MOLECULE: "CCOc1cc(N)c(Cl)cc1C(=O)NCC1CN(Cc2ccc(F)cc2)CCO1.O=C(O)CC(O)(CC(=O)O)C(=O)O (stereo not shown)"
  Pct of control (%): 96.8
- MOLECULE: "CCOC(=O)c1ccc(N2NC(=O)C(=Cc3ccc([N+](=O)[O-])o3)C2=O)cc1"
  Pct of control (%): 34.2
- MOLECULE: "Cc1ccc(-n2sc(=O)n(Cc3ccc(F)cc3)c2=O)cc1"
  Pct of control (%): 114
- MOLECULE: "Cc1cccc(C)c1NC(=O)C1CCCCN1C.Cl (stereo not shown)"
  Pct of control (%): 95.5
- MOLECULE: "O=[N+]([O-])c1ccc2c(c1)S(=O)(=O)C=C2"
  Pct of control (%): 58.2
- MOLECULE: "O=C(CCCCCCC(=O)Nc1ccccc1)NO"
  Pct of control (%): 102
- MOLECULE: "COc1cc2nccc(Oc3ccc(NC(=O)C4(C(=O)Nc5ccc(F)cc5)CC4)cc3)c2cc1OC"
  Pct of control (%): 70.5
- MOLECULE: "Cc1c(Cl)cccc1Nc1ccccc1C(=O)O"
  Pct of control (%): 99.2
- MOLECULE: "Cl.Cn1c(CCCC(=O)O)nc2cc(N(CCCl)CCCl)ccc21"
  Pct of control (%): 99.1
- MOLECULE: "O=C1NC(=O)C(=Cc2ccc3nccc(-c4ccncc4)c3c2)S1"
  Pct of control (%): 126
- MOLECULE: "COc1cc2c(cc1-c1c(C)noc1C)ncc1[nH]c(=O)n(C(C)c3ccccn3)c12 (stereo not shown)"
  Pct of control (%): 53.6
- MOLECULE: "CN(C)C1C(=O)C(C(N)=O)=C(O)C2(O)C(=O)C3=C(O)c4c(O)cccc4C(C)(O)C3C(O)C12 (stereo not shown)"
  Pct of control (%): 90.8
- MOLECULE: "CC(NC(=O)C(C#N)=Cc1cccc(Br)n1)c1ccccc1 (stereo not shown)"
  Pct of control (%): 24.1
- MOLECULE: "CN1CCN(C2CCN(C(=O)Nc3cc(Oc4ccc(NC(=O)C5(C(=O)Nc6ccc(F)cc6)CC5)c(F)c4)ccn3)CC2)CC1"
  Pct of control (%): 46.1
- MOLECULE: "O=C1C(Cl)=C(N2CCOCC2)C(=O)N1c1ccc(Cl)c(Cl)c1"
  Pct of control (%): 35.9
- MOLECULE: "CCOc1ccc(NC(C)=O)cc1"
  Pct of control (%): 97.7
- MOLECULE: "Cc1c(NC(=O)c2ccc(C(C)(C)C)cc2)cccc1-c1cn(C)c(=O)c(Nc2ccc(C(=O)N3CCOCC3)cc2)n1"
  Pct of control (%): 104
- MOLECULE: "COc1cc(C(C)=O)ccc1O"
  Pct of control (%): 90.4
